test system: HCT-116 colon; assay: NCI tumour cell line growth inhibition, 48 h
Provide the reported GI50 of each item.

Please review the following examples before continuing.
COc1ccc2c(Cl)cc(NC(=O)Nc3c(C)cccc3C)nc2c1 : 5.72 µM
COc1cc2ncnc(Nc3ccc4c(cnn4Cc4ccccc4)c3)c2cc1OC : > 21.3 µM
c1cncc(C2Nc3cccc4cccc(c34)N2)c1 : 16.5 µM
COC(=O)/C=C1/SC(N2N=C(c3cccs3)CC2c2ccc(F)cc2)=NC1=O (stereo not given) : 2.05 µM

Now examine the next entry.
Prompt line: Quick one: give measured GI50 for `COc1cc(-c2n/c(=C\c3c(O)[nH]c4cc(Cl)ccc34)cc3c2=Nc2ccccc2-3)cc(OC)c1OC`
Response line: 3.48 µM

---

system: SW-620 colon; assay: NCI tumour cell line growth inhibition, 48 h; in the data active = GI50 below about 0.43 µM; inactive = the rest
Respond with a class label; see active, inactive

OCCNCCCOc1ccc2ncnc(Nc3ccc(Oc4cccc(C(F)(F)F)c4)c(Cl)c3)c2c1 : inactive
COCCN1CCN(Cc2ccc(-c3n[nH]c4c3C(=O)c3c(NC(=O)NN5CCOCC5)cccc3-4)cc2)CC1 : active

Prompt line: Answer briefly: the call reported for CN(C)CC(C(=O)Cc1ccccc1)c1ccccc1 (stereo unspecified) in this assay.
Response line: inactive

Prompt line: Answer briefly: the call reported for `CCCCC(=O)N/N=C/c1c(O)ccc2ccccc12` in this assay.
Response line: inactive

Prompt line: Answer briefly: the call reported for COc1cc(C2C3=C(COC3=O)Nc3c2ccc2c3CCCC2)cc2c1OCO2 (stereo unspecified) in this assay.
Response line: active

---

system: HL-60(TB) leukemia; assay: NCI tumour cell line growth inhibition, 48 h
Measured parameter: TGI

COc1cc(-c2n/c(=C\c3c(O)[nH]c4cc(Cl)ccc34)cc3c2=Nc2ccccc2-3)cc(OC)c1OC : > 100 µM

Can you give me TGI for all of these, one by one?
1. COc1cccc2c1C(=O)c1c(O)c3c(c(O)c1C2=O)C[C@@](O)(C(=O)CO)CC3OC1CC(O)C(O)C(C)O1 (some centres undefined)
2. Cc1ccc(NC(=S)SCCC(=O)O)cc1
3. COc1ccc(/C=C2\CN(Cc3cn(CCNc4ccnc5cc(Cl)ccc45)nn3)C/C(=C\c3ccc(OC)c(OC)c3)C2=O)cc1OC
4. N=C(N)c1ccc(-c2ccc(-c3cccs3)s2)s1
5. SCc1ccc(CS)s1
6. CNS(=O)(=O)NN(C)S(=O)(=O)c1ccc2ccccc2c1
7. O=c1c2cc(Cl)ccc2[nH]c2cc(O)cc(O)c12

Response line:
["0.55 µM", "> 100 µM", "9.37 µM", "3.42 µM", "> 100 µM", "> 100 µM", "> 10 µM"]

Can you give me TGI for all of these, one by one?
1. [O-][N+]1=NC(c2ccccc2)=C1c1ccccc1
2. COc1ccc2c(c1)[n+]([O-])c(-c1ccc(C)cc1)c(N)[n+]2[O-]
3. C=CC/C(=C\COP(=O)(OCc1ccc([N+](=O)[O-])o1)N(C)CCCCCl)CC/C=C(\C)CCC=C(C)C (centres undefined)
4. N=C(N)c1ccc(NCCOCCNc2ccc(C(=N)N)cc2)cc1
5. O=S1(=O)CCCS(=O)(=O)C(c2ccccc2)=C1c1ccccc1
6. O=[N+]([O-])c1cc(Cl)ccc1OCc1ccccc1

Response line:
1: > 50 µM; 2: > 100 µM; 3: > 100 µM; 4: > 100 µM; 5: 44.6 µM; 6: > 100 µM

Can you give me TGI for all of these, one by one?
1. Cc1ccc(N=NN(C)C(=O)C(C)N)cc1 (centres undefined)
2. CCCCNC(=O)Oc1ccc(/C(=C(/C)Cc2ccc(OC)cc2)c2ccc(OCCN3CCCC3)cc2)cc1
3. O=c1c(Br)cc2c(-c3ccccc3)c3cc(Br)c(O)c(Br)c3oc-2c1Br
4. CCN(CC)C(=O)N1CCN(C=S)CC1

Response line:
1. > 100 µM
2. 3.82 µM
3. > 100 µM
4. > 100 µM

Can you give me TGI for all of these, one by one?
1. N#Cc1c(Cl)nc2ccccc2c1N=[N+]=[N-]
2. Cc1cc(=O)[nH]c(NNC(C#N)c2c(O)ccc3ccccc23)n1 (centres undefined)
3. CCOC(=N)CC(=O)Nc1cccc(Cl)c1
4. COC(=O)C(CBr)CBr
5. COc1ccc(/C=C2\Sc3nnc(CNc4ccc(Cl)cc4)n3N=C2c2cc(F)c(Cl)cc2Cl)cc1OC
6. CN(C)C=NCCN1CCOCC1

Response line:
3.3 µM
8.27 µM
> 100 µM
1.41 µM
> 100 µM
> 100 µM

---

tested on: SK-MEL-2 melanoma; assay: NCI tumour cell line growth inhibition, 48 h
Provide the reported TGI of each item.

CN(C)CC1CCCCCCCCCC(CN(C)C)C1=O (stereo unspecified) : > 67.4 µM

Can you give me TGI for all of these, one by one?
1. Cc1ccc(C(SCC(N)C(=O)O)(c2ccccc2)c2ccccc2)cc1 (stereo unspecified)
2. O=[N+]([O-])c1ccccc1C=NC12CC3CC(CC(C3)C1)C2
3. Cc1cc(N2CCCC2)nc(NCc2cc(Nc3ccnc4cc(Cl)ccc34)ccc2F)n1
4. NC(Cc1ccc(S(=O)(=O)O)cc1)C(=O)NC(Cc1ccc(S(=O)(=O)O)cc1)C(=O)NC(Cc1ccc(S(=O)(=O)O)cc1)C(=O)O (stereo unspecified)
5. CN(C)CC(C(=O)Cc1ccccc1)c1ccccc1 (stereo unspecified)

Response line:
98 µM
> 100 µM
3.31 µM
> 100 µM
5.57 µM

---

system: A549 NSCLC; assay: NCI tumour cell line growth inhibition, 48 h
Provide the reported TGI of each item.

Please review the following examples before continuing.
CCN(CC)CCCNc1nc(=O)[nH]c(C)c1C(=O)Nc1ccc2c(c1)c1ccccc1n2CC : > 100 µM
O=C(CCCl)NNC1=NCCCCN1 : > 100 µM
CN1CCN(c2nc(NCCCNc3ccnc4cc(Cl)ccc34)c3ccccc3n2)CC1 : 19.2 µM
c1cncc(O[Si](Oc2cccnc2)(Oc2cccnc2)Oc2cccnc2)c1 : > 100 µM
C=CC(Br)(CBr)CCC(Br)C(C)(C)Cl (stereo unspecified) : 28.6 µM

Can you give me TGI for all of these, one by one?
1. Nc1c(N2CCOCC2)c(=O)nc2[nH]/c(=C\c3ccccc3)c(=O)n12
2. O=C(NC(Nc1ccc(F)cc1)(C(F)(F)F)C(F)(F)F)C(C(F)(F)F)C(F)(F)F

Response line:
["> 100 µM", "> 100 µM"]

Can you give me TGI for all of these, one by one?
1. CC(/C=C/c1ccccc1)=N\NC(N)=S
2. O=S(=O)(c1ccccc1)n1cc(C[P+](c2ccccc2)(c2ccccc2)c2ccccc2)c2ccccc21
3. C[n+]1c(-c2ccc(/C=N/NC(=O)c3ccc(C(=O)N/N=C/c4ccc(-c5cn6ccccc6[n+]5C)cc4)cc3)cc2)cn2ccccc21
4. CCOC(=O)/C=C/[C@H](O)[C@@H](O)/C=C/C(=O)OCC

Response line:
1: > 100 µM; 2: 24.8 µM; 3: 314 µM; 4: > 100 µM

---

test system: SF-295 CNS; experiment: NCI tumour cell line growth inhibition, 48 h
Assign class by TGI: not lower than 20 µM means 1; lower than 20 µM means 0.

Past entries and their recorded results:
CCCCNC(=O)Oc1ccc(/C(=C(/C)Cc2ccc(OC)cc2)c2ccc(OCCN3CCCC3)cc2)cc1 : 0
O=[N+]([O-])C(=C1Nc2ccccc2N1)/C(Cl)=C(/Cl)N1CCOCC1 : 1
CC1(S)CC2C(CC1Sc1ccccc1)C2(C)C (centres undefined) : 1
N#Cc1c(O)c(N=Nc2ccc(Cl)cc2)c(=O)n2c1[nH]c1ccccc12 : 1
O=C(O)CN1CCN(CC(=O)N2CCN(C(=O)OCc3ccccc3)CC2)CCN(CC(=O)O)CCN(CC(=O)N2CCN(C(=O)OCc3ccccc3)CC2)CC1 : 1
CN1C=Cc2nccc3cc4c(c1c23)OCO4 : 0

Prompt line: Confirm if TGI reported for the molecule C=C1C2CC(OC(C)=O)C3(C)C(c4ccoc4)OC(=O)[C@@H](O)[C@]13OC1C[C@H](OC(C)=O)C(C)(C)[C@H](CC(=O)OC)[C@]12C (some centres undefined) is 20 µM or above.
Response line: 1

Prompt line: Confirm if TGI reported for the molecule `CCc1cc2ncc(CN3CCN(c4ccc(C(=O)NC)nc4)CC3)cc2[nH]c1=O` is 20 µM or above.
Response line: 1

Prompt line: Confirm if TGI reported for the molecule `CN(C)CCn1c(=O)c2ccc3c4c(nn3CCN(C)C)c3cc([N+](=O)[O-])ccc3n(c1=O)c24` is 20 µM or above.
Response line: 0

---

test system: OVCAR-4 ovarian; assay: NCI tumour cell line growth inhibition, 48 h
Measured parameter: GI50

N#Cc1c(N)nc(N)nc1N[C@H](c1nc2c(F)ccc(Cl)c2c(=O)n1-c1cccnc1)C1CC1 : 19.4 µM
COc1cc(-c2n/c(=C\c3c(O)[nH]c4cc(Cl)ccc34)cc3c2=Nc2ccccc2-3)cc(OC)c1OC : 2.59 µM
O=[n+]1c2ccccc2n([O-])c2cc(Cl)ccc21 : 2.67 µM
CC(=O)[CH-]C(=O)c1ccccc1.CC(=O)[CH-]C(=O)c1ccccc1.Cl.[O-]c1ccccn1.[O-]c1ccccn1.[Ti+4] : > 100 µM
C[n+]1c(-c2ccc(/C=N/NC(=O)c3ccc(C(=O)N/N=C/c4ccc(-c5cn6ccccc6[n+]5C)cc4)cc3)cc2)cn2ccccc21 : 623 µM

Can you give me GI50 for all of these, one by one?
1. C/C=C/[C@H]1O[C@@H]2C(=C[C@H]1O)C(=O)O[C@H]2C
2. COc1cc(N2CCN(C(C)C)CC2)ccc1Nc1nc(Nc2cccc(F)c2C(=O)O)c2cc[nH]c2n1
3. CCCNC(=O)c1ccc(Cl)cc1Cl
4. C[C@]1(Cn2ccnn2)C(C(=O)O)N2C(=O)CC2S1(=O)=O (some centres undefined)

Response line:
["12.3 µM", "> 25 µM", "> 100 µM", "> 100 µM"]
